Each entry below carries its recorded log10 of Ki.
system name: CBL-B (residues 36-427) (Homo sapiens, UniProt Q13191)
Construct: Purified CBL-B (residues 36-427) and C-CBL (residues 46-435) proteins from baculovirus-infected insect cells; made in house; host or cells: baculovirus-infected insect cells
assay text: Ligand Displacement Assay (LDA), HTRF competitive binding against BODIPY-labeled fluorescent tracer, CBL-B
run conditions: geometric mean of the number of tests, read-out: CBL-B Ki (nM) GMean
Field: value | Transform: log10 | Quantity: Ki | Unit: nM

# annotated cases, reported log10 of Ki shown
>  <compound>
CC(NCCO)c1nc(C(F)(F)F)cc2c(-c3cccc([C@H](c4nncn4C)C4CCCCC4)c3)n[nH]c12 (single isomer, unassigned) [Example C39]

>  <readout>
log10 of Ki

>  <observed measurement>
0.87

$$$$
>  <compound>
Cn1cnnc1[C@@H](c1cccc(-c2n[nH]c3c(CN[C@H]4CC[C@H]4O)nc(C(F)(F)F)cc23)c1)C1CCC1 (single isomer, unassigned) [Example D92]

>  <readout>
log10 of Ki

>  <observed measurement>
0.65

$$$$
>  <compound>
Cn1cnnc1CC1(c2cccc(-c3n[nH]c4c(CN[C@@H]5CCC(F)(F)C5)nc(C(F)(F)F)cc34)c2)COC1 [Example C60]

>  <readout>
log10 of Ki

>  <observed measurement>
1.03

$$$$
>  <compound>
Cn1cnnc1CC1(c2cccc(-c3n[nH]c4c(CCN)nc(C(F)(F)F)cc34)c2)COC1 [Example K5]

>  <readout>
log10 of Ki

>  <observed measurement>
1.74

$$$$
>  <compound>
CNCc1nc(C(F)(F)F)cc2c(-c3cccc([C@H](c4nncn4C)C4CCC4)c3)n[nH]c12 [Example C103]

>  <readout>
log10 of Ki

>  <observed measurement>
1.66

$$$$

For C[C@@H](N[C@H]1CC[C@@H]1O)c1nc(C(F)(F)F)cc2c(-c3cccc([C@H](c4nncn4C)C4CCC4)c3)n[nH]c12 (single isomer, unassigned) [Example D22] the compound record lists log10 of Ki as -0.10

For Cn1cnnc1[C@@H](c1cccc(-c2n[nH]c3ncc(Cl)cc23)c1)C1CCC1 [Example A4] the compound record lists log10 of Ki as 1.25

* * *

system name: CBL-B (Homo sapiens, UniProt Q13191)
Construct: endogenous in cells; host or cells: Jurkat HiBit-IL2 reporter cells, C-CBL knocked out by CRISPR
assay text: Jurkat HiBit-IL2 assay (c-CBL KO), reporter cell line expressing CBL-B only
Format: cell-based
run conditions: c-CBL KO (CBL-B only), anti-CD3/anti-CD28 stimulation 4 hours, geometric mean, Table 16a, read-out: C-CBL KO EC50 (nM) GMean
Each entry below carries its recorded EC50.
Value expressed in nM; do not type the unit.

>  <molecule>
CC(NCCO)c1nc(C(F)(F)F)cc2c(-c3cccc([C@H](c4nncn4C)C4CCC4)c3)n[nH]c12 (single isomer, unassigned) [Example C42]

>  <endpoint unit>
nM

>  <EC50>
29

$$$$
>  <molecule>
CC1CN(Cc2nc(C(F)(F)F)cc3c(-c4cccc(C5(Cc6nncn6C)COC5)c4)n[nH]c23)CCC1(F)F (single isomer, unassigned) [Example C31]

>  <endpoint unit>
nM

>  <EC50>
166

$$$$

For CC(c1nc(C(F)(F)F)cc2c(-c3cccc(C4(Cc5nncn5C)COC4)c3)n[nH]c12)N1C[C@@H](F)[C@H](F)C1 (single isomer, unassigned) the molecule record lists EC50 as 49

For CC1CN(Cc2nc(C(F)(F)F)cc3c(-c4cccc(C5(Cc6nncn6C)COC5)c4)n[nH]c23)CCC1(F)F (single isomer, unassigned) [Example C32] the molecule record lists EC50 as 83

For C[C@H](N[C@@H]1CCC[C@@H]1O)c1nc(C(F)(F)F)cc2c(-c3cccc([C@H](c4nncn4C)C4CCC4)c3)n[nH]c12 (single isomer, unassigned) the molecule record lists EC50 as 3

* * *

system name: WT CBL-B (36-427) (Homo sapiens)
Construct: N-terminal biotinylated WT CBL-B (36-427) and C-CBL (46-435) were captured on a streptavidin (SA) coated sensor chip
assay text: Surface Plasmon Resonance (SPR) assay, binding affinity and kinetics, CBL-B
run conditions: SPR at 10° C., biotinylated WT CBL-B (36-427) on streptavidin chip; geometric mean; read-out: CBL-B SPR Kd (nM) GMean
readout: log10 of Kd (log10 of the value in nM)
Field: value | Transform: log10 | Quantity: Kd | Unit: nM

>  <compound>
CC1CN(Cc2nc(C(F)(F)F)cc3c(-c4cccc(C5(Cc6nncn6C)COC5)c4)n[nH]c23)CCC1(F)F (single isomer, unassigned) [Example C32]

>  <log10 of Kd>
-0.10

$$$$
>  <compound>
C[C@@H](c1nc(C(F)(F)F)cc2c(-c3cccc(C4(Cc5nncn5C)COC4)c3)n[nH]c12)N1CC[C@H](F)C1 (single isomer, unassigned) [Example D98]

>  <log10 of Kd>
1.66

$$$$
>  <compound>
C[C@H](NC1CC(F)(F)C1)c1nc(C(F)(F)F)cc2c(-c3cccc([C@H](c4nncn4C)C4CCC4)c3)n[nH]c12 (single isomer, unassigned) [Example D90]

>  <log10 of Kd>
0.81

$$$$
>  <compound>
CNc1nc2[nH]nc(-c3cccc([C@H](c4nncn4C)C4CCC4)c3)c2cc1C(F)(F)F [E2]

>  <log10 of Kd>
1.73

$$$$
>  <compound>
CC(N)c1nc(C(F)(F)F)cc2c(-c3cccc(C4(Cc5nncn5C)COC4)c3)n[nH]c12 (single isomer, unassigned) [Example K16]

>  <log10 of Kd>
1.20

$$$$

Read the next record carefully.
Per the reported WT CBL-B (36-427) (Homo sapiens) data, CC(O)c1nc(C(F)(F)F)cc2c(-c3cccc(C4(Cc5nncn5C)COC4)c3)n[nH]c12 (single isomer, unassigned) [Example K10] has log10 of Kd of 1.37

* * *

system name: CBL-B (residues 36-427) (Homo sapiens, UniProt Q13191)
Construct: Purified CBL-B (residues 36-427) and C-CBL (residues 46-435) proteins from baculovirus-infected insect cells; made in house; host or cells: baculovirus-infected insect cells
assay text: Ligand Displacement Assay (LDA), HTRF competitive binding against BODIPY-labeled fluorescent tracer, CBL-B
run conditions: geometric mean of the number of tests, read-out: CBL-B Ki (nM) GMean
readout: log10(Ki) (log10 of the value in nM)
Field: value | Transform: log10 | Quantity: Ki | Unit: nM

# annotated cases, reported log10(Ki) shown
>  <compound>
CC(=O)NC(C)c1nc(C(F)(F)F)cc2c(-c3cccc([C@H](c4nncn4C)C4CCC4)c3)n[nH]c12 (some centres unmarked) [Example M3]

>  <log10(Ki)>
1.46

$$$$
>  <compound>
Cn1cnnc1[C@@H](c1cccc(-c2n[nH]c3c(CN4CCNC(=O)C4)nc(C(F)(F)F)cc23)c1)C1CCC1

>  <log10(Ki)>
1.19

$$$$
>  <compound>
CC(NC(=O)[C@H](C)O)c1nc(C(F)(F)F)cc2c(-c3cccc([C@H](c4nncn4C)C4CCC4)c3)n[nH]c12 (single isomer, unassigned)

>  <log10(Ki)>
0.53

$$$$

For CC(O)c1nc(C2CC2)cc2c(-c3cccc(C4(Cc5nncn5C)COC4)c3)n[nH]c12 (single isomer, unassigned) [Example H6] the compound record lists log10(Ki) as 1.55

For C[C@H](c1nc(C(F)(F)F)cc2c(-c3cccc([C@H](c4nncn4C)C4CCC4)c3)n[nH]c12)N1CC[C@@H](O)C1 (single isomer, unassigned) the compound record lists log10(Ki) as 0.97

For Cn1cnnc1[C@@H](c1cccc(-c2n[nH]c3c(CNC4CCNC(=O)C4)nc(C(F)(F)F)cc23)c1)C1CCC1 (single isomer, unassigned) [Example C87] the compound record lists log10(Ki) as 1.33

For C[C@@H](NC1CC(F)(F)C1)c1nc(C(F)(F)F)cc2c(-c3cccc([C@H](c4nncn4C)C4CCC4)c3)n[nH]c12 (single isomer, unassigned) the compound record lists log10(Ki) as 0.79

For C[C@H](NC1(CO)CCC1)c1nc(C(F)(F)F)cc2c(-c3cccc([C@H](c4nncn4C)C4CCC4)c3)n[nH]c12 (single isomer, unassigned) the compound record lists log10(Ki) as 0.94

For C[C@@H](c1nc(C(F)(F)F)cc2c(-c3cccc(C4(Cc5nncn5C)COC4)c3)n[nH]c12)N1CC[C@H](F)C1 (single isomer, unassigned) [Example D97] the compound record lists log10(Ki) as 1.40

For Cn1cnnc1[C@@H](c1cccc(-c2n[nH]c3c(CNC4CCNC(=O)C4)nc(C(F)(F)F)cc23)c1)C1CCC1 (single isomer, unassigned) [Example C88] the compound record lists log10(Ki) as 0.86

For `C[C@@H](N[C@@H]1CC[C@H](O)C1)c1nc(C(F)(F)F)cc2c(-c3cccc([C@H](c4nncn4C)C4CCC4)c3)n[nH]c12` the compound record lists log10(Ki) as 0.32

For `CNCc1nc(C(F)(F)F)cc2c(-c3cccc(C4(Cc5nncn5C)COC4)c3)n[nH]c12` the compound record lists log10(Ki) as 1.52

For C[C@@H](NC(C)(C)CO)c1nc(C(F)(F)F)cc2c(-c3cccc([C@H](c4nncn4C)C4CCC4)c3)n[nH]c12 (single isomer, unassigned) the compound record lists log10(Ki) as 0.68

For `C[C@H](N)c1nc(C(F)(F)F)cc2c(-c3cccc([C@H](c4nncn4C)C4CCCCC4)c3)n[nH]c12` the compound record lists log10(Ki) as 1.69

Hello, the source for this data is patent US20260125375A1, in case you need it.
